# Tested on: BDF1 mice, s.c. Lewis lung carcinoma, T/C %
# PROTOCOL DESCRIPTION: NCI In Vivo Anticancer Drug Screen. Data for tumor model Lewis Lung Carcinoma (subcutaneous) in B6D2F1 (BDF1) mice
# ASSAY SETUP: endpoint: mean tumor weight; dose: 100.0 mg/kg/injection; schedule: Q01DX011 (ip); vehicle: carboxymethylcellulose (CMC); higher = larger tumour
# Experimental: The antitumor activity of compounds was measured in mice bearing transplantable tumors. Survival or tumor size were measured and the results are expressed as the measurement made in the treated group (T) divided by the measurement made in the vehicle treated control group (C). The tumor model used in this assay is Lewis Lung Carcinoma (subcutaneous) in B6D2F1 (BDF1) mice
Records with an inconclusive call do not appear.
READOUT LABEL: T/C

Parameter requested: T/C. Apply to each item below.
1. O=c1[nH]c(=O)n(C2CC(O)C(CO)O2)cc1Br (configuration not stated)
2. Nc1nc(=O)n(C2CC(O)C(CO)O2)cc1Br (configuration not stated)
3. O=C(O)CCC(=O)Nc1nccs1
4. OCC1=CCN2CC[C@@H](O)[C@@H]12
5. COc1cccc(/C=N\NC(=O)C(C)SC(C)C(=O)N/N=C/c2cccc(OC)c2)c1 (configuration not stated)
6. CCOc1ccc2nc(S(N)(=O)=O)sc2c1
7. OCc1ccccc1OC1OC(CO)C(O)C(O)C1O (configuration not stated)

result:
1. 88 % of control
2. 55 % of control
3. 83 % of control
4. 111 % of control
5. 67 % of control
6. 38 % of control
7. 106 % of control

Quick batch: T/C for everything below.
1. CC(C)C1C=C2CCC3C(C)(C(=O)O)CCCC3(C)C2CC1 (configuration not stated)
2. CN1CCCC1
3. C=C(C)C1CC=C(C)CC1 (configuration not stated)
4. C=C(C)[C@@H]1CC[C@]2(CO)CC[C@]3(C)[C@H](CC[C@@H]4[C@@]5(C)CC[C@H](O)C(C)(C)[C@@H]5CC[C@]43C)[C@@H]12
5. C=CCNc1ccc(C)cc1

result:
1: 89 % of control; 2: 69 % of control; 3: 65 % of control; 4: 101 % of control; 5: 5 % of control
